The reported numbers originate from paper PMC8860598.

Target: T1, Sen1 HD T1623V (Saccharomyces cerevisiae, UniProt Q00416 1095-1905, T1623V)
T1 sequence: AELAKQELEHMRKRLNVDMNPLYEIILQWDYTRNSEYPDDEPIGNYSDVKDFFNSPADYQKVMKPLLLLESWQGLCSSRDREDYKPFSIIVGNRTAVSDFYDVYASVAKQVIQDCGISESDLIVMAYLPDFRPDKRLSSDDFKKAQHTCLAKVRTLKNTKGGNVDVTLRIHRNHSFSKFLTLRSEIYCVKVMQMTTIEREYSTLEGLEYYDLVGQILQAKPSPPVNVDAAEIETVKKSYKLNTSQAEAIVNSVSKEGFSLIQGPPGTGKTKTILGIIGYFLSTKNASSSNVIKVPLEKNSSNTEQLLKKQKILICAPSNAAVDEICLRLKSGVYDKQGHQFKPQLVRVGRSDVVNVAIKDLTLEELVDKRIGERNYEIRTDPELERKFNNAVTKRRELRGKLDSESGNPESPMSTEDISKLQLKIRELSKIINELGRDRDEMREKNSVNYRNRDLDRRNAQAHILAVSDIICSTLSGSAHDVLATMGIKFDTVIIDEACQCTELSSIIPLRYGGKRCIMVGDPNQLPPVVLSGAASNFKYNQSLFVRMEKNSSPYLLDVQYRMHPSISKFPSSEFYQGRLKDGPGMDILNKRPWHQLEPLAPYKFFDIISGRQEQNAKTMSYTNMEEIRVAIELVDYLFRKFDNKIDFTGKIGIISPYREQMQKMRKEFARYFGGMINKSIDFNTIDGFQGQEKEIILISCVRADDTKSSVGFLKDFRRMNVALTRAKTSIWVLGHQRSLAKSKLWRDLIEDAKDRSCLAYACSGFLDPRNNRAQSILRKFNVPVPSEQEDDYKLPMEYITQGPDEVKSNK
Test: EMSA
Measure: Kd

So what does the record say about Kd for UUCAUUUCAGACCAGCACCCACUCACUACAACUCACGACCAGGC (ssRNA) [DL3508 (called 40-mer RNA; printed sequence is 44 nt)] ?
12.7 nM
